Every entry's value here was drawn from the supplement of paper PMC13380429.

- Test system: Vero E6 infected with SARS-CoV-2
- protocol_text: inhibition of SARS-CoV-2 cytopathic effect; higher = more antiviral protection, active = above 15
- stated_conditions: 10000 nM; 48 h
measured_parameter: inhibition of SARS-CoV-2 cytopathic effect

compound	assay_system	result
CCOc1cncc(/C=C/CCNC)c1	Vero E6 infected with SARS-CoV-2	3.59% (inactive)
C[N+](C)(C)CC#CCN1CCCC1=O [oxotremorine-M]	Vero E6 infected with SARS-CoV-2	0.38% (inactive)
CN(CCOP(=O)(O)O)C(=N)N [creatinol-phosphate]	Vero E6 infected with SARS-CoV-2	-1.58% (inactive)

###

This section presents molecules with their documented inhibition of SARS-CoV-2 cytopathic effect values.
- Tested on: Vero E6 infected with SARS-CoV-2
- protocol_text: inhibition of SARS-CoV-2 cytopathic effect; higher = more antiviral protection, active = above 15
- stated_conditions: 1 nM; 48 h
measured_parameter: inhibition of SARS-CoV-2 cytopathic effect (%)

molecule	measured_number
CC(=O)N[C@H](Cc1ccc2ccccc2c1)C(=O)N[C@H](Cc1ccc(Cl)cc1)C(=O)N[C@H](Cc1cccnc1)C(=O)N[C@@H](CO)C(=O)N[C@@H](Cc1ccc(O)cc1)C(=O)N[C@H](CCCNC(N)=O)C(=O)N[C@@H](CC(C)C)C(=O)N[C@@H](CCCNC(=N)N)C(=O)N1CCC[C@H]1C(=O)N[C@H](C)C(N)=O	-4.73
[Cl][Ru-]([Cl])([Cl])[Cl].[Na+].c1ccc2[nH]ncc2c1.c1ccc2[nH]ncc2c1	2.72
CNCCC(Oc1ccccc1OC)c1ccccc1 (configuration not stated)	-1.97
Cc1cc(F)c(Nc2ncnc3cc(OCc4ccccc4)ccc23)cc1O	-3.67
O=C(c1ccc(F)cc1)C1CCN(CCn2c(=O)[nH]c3ccccc3c2=O)CC1	1.58
CN[C@@H]1[C@H](O[C@H]2[C@H](O[C@H]3[C@H](O)[C@@H](O)[C@H](NC(=N)N)[C@@H](O)[C@@H]3NC(=N)N)O[C@@H](C)[C@]2(O)CO)O[C@@H](CO)[C@H](O)[C@H]1O [dihydrostreptomycin]	0.2
CC[N+](CC)(CC)CC(=O)Nc1c(C)cccc1C	-1.18
